Test system: C2C12 Cells
Assay: Glucose utilization in cultured C2C12 cells (myotubes)
Type: cell-based, mouse
Settings: glucose concentration in medium relative to untreated cells; 5 μM peptide, 22 h
Attribute: Percent of Control Activity
Return type: number; implicit unit %.

substance="209 (FAVSMMWSLE) [compound 209]" target_desc="C2C12 Cells" measured_number=102
substance="51 (MIEMGASFCHV) [compound 51]" target_desc="C2C12 Cells" measured_number=103
substance="78 (MMAHLGKKPVSGG) [compound 78]" target_desc="C2C12 Cells" measured_number=106
substance="161 (MWLIEEYAMSDF) [compound 161]" target_desc="C2C12 Cells" measured_number=103
substance="86 (MMLSWDDIIYGG) [compound 86]" target_desc="C2C12 Cells" measured_number=87

With those in mind, consider the next substance.
Ask | For 110 (MQPYRRYRFHPRLSMIYPTLQLM) [compound 110] , what is its reported Percent of Control Activity?
Reply | 110

###

Attribute: Percent of Control Activity
System: H4-IIE Cells
Test: Glucose production in cultured H4-IIE cells
Format: cell-based, rat
Conditions: glucose concentration in medium relative to untreated cells; 5 μM peptide, 24 h
Return type: number; implicit unit %.

Completed entries (count: 3):
substance="200 (RLLAWGNTWWQLLWNEGLFFWLEL) [compound 200]" property="Percent of Control Activity" measured_number=97
substance="23 (MFHLRYHNHRYPHRRQSI) [compound 23]" property="Percent of Control Activity" measured_number=96
substance="58 (MKPMSPMRLY) [compound 58]" property="Percent of Control Activity" measured_number=112

Ask | # get_value(readout= Percent of Control Activity, system= H4-IIE Cells) for 18 (MEAMGLAWNQLWGVRFLPFLS) [compound 18]
Reply | 99

Ask | Again, but for 55 (MKHRQVLWVLSCGS) [compound 55]
Reply | 118

Ask | Again, but for 151 (MVNGRRTSVGV) [compound 151]
Reply | 90

###

Test system: C2C12 Cells
Assay: Glucose utilization in cultured C2C12 cells (myotubes)
Assay type: cell-based, mouse
Conditions: glucose concentration in medium relative to untreated cells; 5 μM peptide, 22 h
Attribute: Percent of Control Activity
Return type: number; implicit unit %.

Completed entries (count: 2):
substance="111 (MQRWFFMSLVVVVVRA) [compound 111]" measured_number=101
substance="126 (MSTHLPNYHTNLSYR) [compound 126]" measured_number=110

With those in mind, consider the next substance.
Ask | For 194 (LSPKPQQLNQQNCSPEHYEPQLKT) [compound 194] , what is its reported Percent of Control Activity?
Reply | 92

###

Attribute: Percent of Control Activity
Test system: C2C12 Cells
Experiment: Glucose utilization in cultured C2C12 cells (myotubes)
Assay type: cell-based, mouse
Settings: glucose concentration in medium relative to untreated cells; 5 μM peptide, 22 h

substance="202 (MWVIEEYAKILRSWVWFNPPQLPA) [compound 202]" result=89%
substance="206 (SSSMMGEVASC) [compound 206]" result=99%

Ask | For 150 (MVLWWFGGSG) [compound 150] , what is its reported Percent of Control Activity?
Reply | 102%

Ask | Again, but for 25 (MFLVGWWGMV) [compound 25]
Reply | 97%

Ask | Again, but for 85 (MMKLRLTPWRLPDPPNHH) [compound 85]
Reply | 88%

Ask | Again, but for 29 (MGDCAVCDA) [compound 29]
Reply | 109%
